biological target: human TLR8 (Homo sapiens, UniProt Q9NR97); assay: TLR8 inhibition reporter assay (HEK-Blue cells, secreted embryonic alkaline phosphatase reporter); details: HEK-Blue cells overexpressing human TLR8, stimulated with R848 15.9 μM; read-out: TLR 8 IC50
Sequence (Q9NR97 27-1041): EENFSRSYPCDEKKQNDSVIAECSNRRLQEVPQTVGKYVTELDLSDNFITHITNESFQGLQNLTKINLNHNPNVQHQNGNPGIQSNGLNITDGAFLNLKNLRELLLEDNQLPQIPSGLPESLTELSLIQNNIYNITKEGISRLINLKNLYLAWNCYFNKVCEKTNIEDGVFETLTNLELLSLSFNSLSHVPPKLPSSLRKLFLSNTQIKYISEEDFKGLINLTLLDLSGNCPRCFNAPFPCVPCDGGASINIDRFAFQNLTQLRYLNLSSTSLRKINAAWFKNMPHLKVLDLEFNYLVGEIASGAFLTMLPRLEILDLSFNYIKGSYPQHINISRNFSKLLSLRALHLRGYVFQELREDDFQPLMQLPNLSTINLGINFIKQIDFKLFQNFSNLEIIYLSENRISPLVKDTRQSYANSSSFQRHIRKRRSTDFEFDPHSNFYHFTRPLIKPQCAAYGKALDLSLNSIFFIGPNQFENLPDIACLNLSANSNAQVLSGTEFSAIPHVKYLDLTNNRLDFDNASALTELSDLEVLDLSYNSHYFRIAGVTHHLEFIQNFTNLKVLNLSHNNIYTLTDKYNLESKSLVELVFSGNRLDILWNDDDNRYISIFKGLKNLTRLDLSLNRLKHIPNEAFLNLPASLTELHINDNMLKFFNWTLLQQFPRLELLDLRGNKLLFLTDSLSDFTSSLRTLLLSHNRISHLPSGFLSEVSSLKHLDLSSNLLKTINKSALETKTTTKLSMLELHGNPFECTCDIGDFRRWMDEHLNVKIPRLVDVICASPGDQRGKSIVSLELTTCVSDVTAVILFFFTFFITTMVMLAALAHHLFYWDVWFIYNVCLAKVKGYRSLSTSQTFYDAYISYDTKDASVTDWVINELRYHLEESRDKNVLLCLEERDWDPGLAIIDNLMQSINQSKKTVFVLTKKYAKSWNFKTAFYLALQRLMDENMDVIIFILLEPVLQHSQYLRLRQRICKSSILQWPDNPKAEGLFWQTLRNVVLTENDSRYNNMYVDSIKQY
pIC50: −log10 of the molar value.
measuredProperty: pIC50

compound=Cc1cc(-c2ccc(N3CCC(N4CCCC4)CC3)cc2)cc2c1nc(-c1ccc(S(C)(=O)=O)cc1)n2C endpointvalue=5.72
compound="Cn1c(-c2ccc(S(C)(=O)=O)cc2)nc2c(F)c(C3CCN(C4CC5CCC(C4)N5C4CCOCC4)CC3)ccc21 (stereo not shown) [Example 197]" endpointvalue="< 4.30"
compound=Cn1c(-c2ccc(S(C)(=O)=O)cc2)nc2cc(F)c(C3CCN(C4CCN(C5CCC5)CC4)CC3)cc21 endpointvalue="< 4.30"
compound="Cc1cc(C2CCN(C3CC4CCC(C3)N4C(C)C)CC2)cc2[nH]c(-c3ccc(S(C)(=O)=O)cc3)nc12 (stereo not shown) [Example 333]" endpointvalue="< 4.30"

###

target: human TLR9 (Homo sapiens); construct: host or cells: HEK-Blue cells (HEK293-derived reporter line); experiment: TLR9 inhibition reporter assay (HEK-Blue cells, secreted embryonic alkaline phosphatase reporter); assay type: cell-based; conditions: HEK-Blue cells overexpressing human TLR9, stimulated with ODN2006 5 nM; read-out: TLR 9 IC50
Sequence (Q9NR96 26-1032): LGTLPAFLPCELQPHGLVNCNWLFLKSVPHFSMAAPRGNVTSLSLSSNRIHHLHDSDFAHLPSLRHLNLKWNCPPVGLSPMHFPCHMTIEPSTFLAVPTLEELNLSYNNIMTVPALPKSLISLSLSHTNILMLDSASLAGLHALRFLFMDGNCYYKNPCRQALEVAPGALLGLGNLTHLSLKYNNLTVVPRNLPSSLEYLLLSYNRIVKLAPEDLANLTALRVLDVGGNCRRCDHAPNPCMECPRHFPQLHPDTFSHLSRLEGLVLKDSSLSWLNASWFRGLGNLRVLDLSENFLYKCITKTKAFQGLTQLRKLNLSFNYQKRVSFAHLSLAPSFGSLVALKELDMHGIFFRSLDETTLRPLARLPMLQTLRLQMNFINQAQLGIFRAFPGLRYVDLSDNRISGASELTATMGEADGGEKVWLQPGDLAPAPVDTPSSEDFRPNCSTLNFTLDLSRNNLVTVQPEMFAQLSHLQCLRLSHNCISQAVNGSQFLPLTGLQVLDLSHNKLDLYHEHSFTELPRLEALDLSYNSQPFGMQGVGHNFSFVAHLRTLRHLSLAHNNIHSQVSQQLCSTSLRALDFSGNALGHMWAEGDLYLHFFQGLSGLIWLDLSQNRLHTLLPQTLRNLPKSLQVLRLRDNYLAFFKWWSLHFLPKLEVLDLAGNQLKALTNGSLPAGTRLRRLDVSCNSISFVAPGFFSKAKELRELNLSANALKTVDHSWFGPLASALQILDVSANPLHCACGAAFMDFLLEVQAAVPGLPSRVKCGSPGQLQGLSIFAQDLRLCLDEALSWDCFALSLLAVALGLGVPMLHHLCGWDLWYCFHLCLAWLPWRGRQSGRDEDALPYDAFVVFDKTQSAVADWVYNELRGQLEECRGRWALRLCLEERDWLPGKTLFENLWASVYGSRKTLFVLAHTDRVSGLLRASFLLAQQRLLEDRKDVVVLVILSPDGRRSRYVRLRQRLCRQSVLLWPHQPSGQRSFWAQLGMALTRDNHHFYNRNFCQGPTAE
Below: a set of entries, each annotated with reported IC50.
measuredProperty: IC50

compound=Cc1cc(C2CCN(C3CCN(CC(C)C)CC3)CC2)cc2[nH]c(-c3cccc(OC(F)F)c3)nc12 endpointvalue="257 nM"
compound=COc1ccc(-c2nc3c(C)cc(C4CCN(C5CCN(CC(C)C)CC5)CC4)cc3[nH]2)cc1F endpointvalue="50 nM"
compound=Cc1cc(C2CCN(C3CCN(CC(C)C)CC3)CC2)cc2[nH]c(-c3ccc(C4CC4)cc3)nc12 endpointvalue="85 nM"
compound=COc1ccc(-c2nc3c(F)cc(C4CCN(C5CCN(C6CC6)CC5)CC4)cc3[nH]2)cc1OC endpointvalue="268 nM"
compound=Cc1cc(-c2nc3c(C)cc(C4CCN(C5CCN(CC(C)C)CC5)CC4)cc3[nH]2)cc(C)n1 endpointvalue="45 nM"
compound=Cc1cc(-c2ccc(N3CCN(CC(C)C)CC3)cc2)cc2c1nc(-c1ccc(S(C)(=O)=O)cc1)n2C endpointvalue="4440 nM"
compound=Cn1c(-c2ccc(S(C)(=O)=O)cc2)nc2cc(C3CCN(C4CCN(C5CCC5)CC4)CC3)cc(F)c21 endpointvalue="114 nM"

###

biological target: human TLR9 (Homo sapiens); construct: host or cells: HEK-Blue cells (HEK293-derived reporter line); test: TLR9 inhibition reporter assay (HEK-Blue cells, secreted embryonic alkaline phosphatase reporter); type: cell-based
pIC50: −log10 of the molar value.
Tick fulfilled if pIC50 is 7 or greater. Tick not fulfilled if pIC50 is less than 7.

molecule=Cn1c(-c2ccc(S(C)(=O)=O)cc2)nc2ccc(C3CCN(C4CCN(C5CCOCC5)CC4)CC3)c(F)c21 testsystem="human TLR9 (Homo sapiens)" assignedlabel="not fulfilled"
molecule="Cc1cc(C2CCN(C3CC4CCC(C3)N4C3CCOCC3)CC2)cc2c1nc(-c1ccc(S(C)(=O)=O)cc1)n2C (single isomer, unassigned) [Example 161]" testsystem="human TLR9 (Homo sapiens)" assignedlabel="not fulfilled"
molecule=Cc1cc(-c2ccc(N3CCN(CC4CC4)CC3)cc2)cc2c1nc(-c1ccc(S(C)(=O)=O)cc1)n2C testsystem="human TLR9 (Homo sapiens)" assignedlabel="not fulfilled"
molecule=CC(C)CN1CCC(N2CCC(c3cc(F)c4nc(-c5ccc(S(C)(=O)=O)cc5)n(C)c4c3)CC2)CC1 testsystem="human TLR9 (Homo sapiens)" assignedlabel=fulfilled
molecule="Cn1c(-c2ccc(S(C)(=O)=O)cc2)nc2cc(C3CCN(C4CC5CCC(C4)N5C4CCOCC4)CC3)cc(F)c21 (stereo not drawn) [Example 212]" testsystem="human TLR9 (Homo sapiens)" assignedlabel="not fulfilled"

The reported numbers originate from patent US12492188B2.
